Tested on: MYB
Test: 3' UTR reporter interaction score (median-centred robust z-score of log2 firefly/Renilla activity); higher = less repression of the 3' UTR reporter
Conditions: HEK293T; 48 h
Output schema: class label derived from 3' UTR reporter interaction score. Mapping: LOW (below -0.4), MEDIUM (-0.4 to below 0.4), HIGH (0.4 or more)

SEQUENCE_RECORD | CLASSIFICATION
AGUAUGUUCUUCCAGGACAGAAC | HIGH
GUGCCGCCAUCUUUUGAGUGU | MEDIUM
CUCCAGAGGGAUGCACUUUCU | LOW
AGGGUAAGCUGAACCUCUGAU | MEDIUM

Please turn your attention to the following entry.
*Q* Would you mind sorting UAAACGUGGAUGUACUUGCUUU into the appropriate category?
*A* MEDIUM

====

Test system: FBXW7
Experiment: 3' UTR reporter interaction score (median-centred robust z-score of log2 firefly/Renilla activity); higher = less repression of the 3' UTR reporter
Settings: HEK293T; 48 h
Each entry below carries its recorded 3' UTR reporter interaction score.
Respond numerically, and do not add a unit to the figure.

SEQUENCE_RECORD | TEST_RESULT
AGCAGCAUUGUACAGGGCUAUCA | -2.69
ACAUAGAGGAAAUUCCACGUUU | -1.56
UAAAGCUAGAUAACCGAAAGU | -0.801
AGCUCGGUCUGAGGCCCCUCAG | 0.253
UGUAAACAUCCUUGACUGGA | 0.548
UGGAAGACUAGUGAUUUUGUUG | -0.892
UGAGGUAGGAGGUUGUAUAGU | 0.127
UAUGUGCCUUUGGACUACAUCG | 0.444

Simply: UGGCAGUGUCUUAGCUGGUUGUU , FBXW7, 3' UTR reporter interaction score = -0.0417

The reported 3' UTR reporter interaction score value, FBXW7, for AAACUCUACUUGUCCUUCUGAGU reads 2.09

With FBXW7 as the test system, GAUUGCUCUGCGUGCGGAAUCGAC showed 3' UTR reporter interaction score of -0.34

Form field, 3' UTR reporter interaction score with FBXW7, item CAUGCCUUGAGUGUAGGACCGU : 0.998

Record for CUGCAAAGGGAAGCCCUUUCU under target or system FBXW7: 3' UTR reporter interaction score reported as -3.15

Reported FBXW7 3' UTR reporter interaction score for item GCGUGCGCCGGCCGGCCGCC was 0.516

Form: item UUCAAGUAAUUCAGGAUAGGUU ; test system FBXW7; 3' UTR reporter interaction score: 1.51

# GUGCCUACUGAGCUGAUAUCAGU with FBXW7: 3' UTR reporter interaction score is 0.26

Sample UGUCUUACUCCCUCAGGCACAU , system: FBXW7. Its 3' UTR reporter interaction score is 1.02

Value (3' UTR reporter interaction score, FBXW7) for record AGGGCCCCCCCUCAAUCCUGU = 0.757

Reported 3' UTR reporter interaction score (FBXW7) for entry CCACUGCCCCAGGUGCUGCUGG is -0.902

Value (3' UTR reporter interaction score, FBXW7) for record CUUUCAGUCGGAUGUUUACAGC = -0.0926

FBXW7 3' UTR reporter interaction score of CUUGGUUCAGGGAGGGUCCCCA is -2.49

Data provenance is the supplement of paper PMC5844555.
